Values were extracted from PubChem BioAssay AID434970.

Listed molecules paired with reported activity change, negative = activation
Test system: intestinal alkaline phosphatase [Mus musculus]
Method Notes: mouse intestinal phosphatase enzyme activation – biochemical, luminescence, single concentration, confirmation (AID 434970)
Condition Notes: purified mouse IAP, CDP-Star luminescence, 30 min, at 10 µM; stronger effect = lower value
Screen size: about 11,000 compounds; about 310 (2.8%) were called active. This is one part of a sample in which actives are shown more often than they occur.
Please respond with the number in % and leave the unit unwritten.

Cc1ccccc1-n1nc(C(=O)O)c(C)c(C#N)c1=O : 2.05
CCN(c1ccccc1)S(=O)(=O)c1ccc(NCC2COc3ccccc3O2)nc1 (stereo not drawn) : -28.6
CCOC(=O)c1ccc(NC(=O)NC2CCN(CC(=O)NCc3ccc4c(c3)OCO4)CC2)cc1 : -60.6
CC1(C)CC(=O)C2=C(C1)NC(=O)CC2C(=O)NCc1ccc(F)cc1 (stereo not drawn) : -29.9

*Q* Quote intestinal alkaline phosphatase [Mus musculus] activity change, negative = activation for entry COc1cc2oc(=O)cc(-c3ccc(-c4ccc(C)cc4)cc3)c2c(OC)c1OC .
*A* 6.55

*Q* Given CSc1ccccc1NC(=O)Nc1ccc(F)c(Cl)c1 , report its activity change, negative = activation on intestinal alkaline phosphatase [Mus musculus].
*A* -83.2

*Q* Quote intestinal alkaline phosphatase [Mus musculus] activity change, negative = activation for entry Cc1cccc(-c2noc(CCC(=O)N3CCN(c4cc(C)ccc4C)CC3)n2)c1 .
*A* 6.25

*Q* // fetch activity change, negative = activation for CN(CC(=O)NC(c1ccccc1)c1ccccc1)Cc1nc2ccccc2c(=O)[nH]1 ; system: intestinal alkaline phosphatase [Mus musculus]
*A* -171

*Q* Retrieve activity change, negative = activation on intestinal alkaline phosphatase [Mus musculus]; query CCOC(=O)C1=CNS(=O)(=O)NC1c1ccc(C)cc1 (stereo not drawn)
*A* 4.05

*Q* For intestinal alkaline phosphatase [Mus musculus], give the measured activity change, negative = activation of the entry COc1ccc(CC(=O)N[C@@H]2c3ccccc3CC[C@@H]2OCc2ccccc2)cc1
*A* -18.9

====

System: intestinal alkaline phosphatase [Mus musculus]
Method Notes: mouse intestinal phosphatase enzyme activation – biochemical, luminescence, single concentration, confirmation (AID 434970)
Condition Notes: purified mouse IAP, CDP-Star luminescence, 30 min, at 10 µM
Screen size: about 11,000 compounds; about 310 (2.8%) were called active. No stated cut-off is given here; in the data, active means activity change below about -85%; inactive means the rest. Many of the other results were omitted from the sample, so actives are more common in it than they were.
Your reply should match one of these outcome classes. active, inactive

Worked examples, 5 molecules total:
CC[C@H](C)[C@@H](C(=O)NCCCCCCCCCCC(=O)N1CCN(C(=O)OC(C)(C)C)CC1)n1cc(CCCCN=C(NC(=O)OC(C)(C)C)NC(=O)OC(C)(C)C)nn1 : active
COc1ccc(S(=O)(=O)NCCc2ccc(F)cc2)cc1 : inactive
Oc1c(C=C2N=c3ccccc3=N2)sc(=S)n1-c1ccc(F)cc1 : inactive
CCn1c(NCc2ccccn2)nc2ccccc21 : inactive
C#CCOCCOCCOCCNc1nc(N2CCN(C(=O)CCCCCCCCCCNC(=O)[C@H]([C@@H](C)CC)n3cc(CCCCN=C(N)N)nn3)CC2)nc(N2CCN(C(=O)CCCCCCCCCCNC(=O)[C@H](CO)n3cc(CCCCCN)nn3)CC2)n1 : active

*Q* Please state the recorded outcome for this molecule: CC(C)(C)OC(=O)CC[C@@H](C(=O)NCCCCCCCCCCC(=O)N1CCN(C(=O)OC(C)(C)C)CC1)n1cc(CCCCCNC(=O)OC(C)(C)C)nn1
*A* inactive

*Q* What call does the record list for Cc1cc(NC(=O)Cn2c(=O)c3c(ncn3CC(C)C)n(Cc3ccccc3)c2=O)no1 ?
*A* inactive

*Q* Call for entry Cc1ccc(S(=O)(=O)C2CCOC2=O)cc1 (stereo not drawn) :
*A* inactive

*Q* So what was the verdict on COc1cc(/C=N/NC(N)=O)cc(Br)c1OCc1ccccc1C in this test?
*A* inactive

*Q* How was COc1ccc(Cl)cc1N1C(=O)[C@@H]2C(c3cccc(OC)c3OC)=NO[C@@H]2C1=O classified in this test?
*A* inactive

*Q* Given Clc1ccc(-n2nnnc2-c2cnc(-c3ccncc3)nc2-c2cccs2)cc1 , state the outcome it received in this test.
*A* inactive

*Q* Answer briefly: the call reported for CCn1c(CNc2nc3ccccc3n2C(C)C)nc2ccccc21 in this assay.
*A* active

*Q* What was the test verdict on CCO/C(C)=C1\N=C(c2ccc(Cl)cc2)OC1=O ?
*A* inactive

====

Test system: intestinal alkaline phosphatase [Mus musculus]
Method Notes: mouse intestinal phosphatase enzyme activation – biochemical, luminescence, single concentration, confirmation (AID 434970)
Condition Notes: purified mouse IAP, CDP-Star luminescence, 30 min, at 10 µM; measured here: IAP activation factor, stronger effect = higher value
Among all 11,000 compounds or so, about 310 (2.8%) were called active. The list comes from a sample in which actives are over-represented; it also holds close analogues and randomly drawn compounds.
Test Readout: activation factor
Keep the answer to the number alone.

CC(=O)Cc1nsc(NC(=O)c2ccc(-c3cccc(C(F)(F)F)c3)o2)n1 : 0.948

*Q* Tell me its activation factor given Cc1cccc(C2=NN(c3ccccc3)[C@@H](C(=O)N3CCOC3=O)[C@@H]2c2ccccc2)c1 as the entry.
*A* 0.97

*Q* Report activation factor for CC(C)NC(=O)c1ccc(CNC(=O)OCC(F)(F)F)cc1
*A* 1.05

*Q* Find the measured activation factor of COc1ccccc1-c1nnc(SCCN2CCOCC2)n1-c1ccc(C)cc1 and report it.
*A* 0.947

*Q* For CC(C)N1CC2=C(OC(N)=C(C#N)C2c2cccnc2)/C(=C/c2cccnc2)C1 (stereo not given) , write its activation factor.
*A* 0.917

====

System: intestinal alkaline phosphatase [Mus musculus]
Method Notes: mouse intestinal phosphatase enzyme activation – biochemical, luminescence, single concentration, confirmation (AID 434970)
Condition Notes: purified mouse IAP, CDP-Star luminescence, 30 min, at 10 µM; measured here: IAP activation factor, stronger effect = higher value
Hit rate of the full screen: of about 11,000 compounds, about 310 (2.8%) were called active. For the sample, actives were picked, then their nearest neighbours and some compounds at random.
Recorded measurements of activation factor, one per entry
No unit in the answer, only the number.

*Q* Specify the recorded activation factor for CCN(CC(=O)NCc1ccc(F)cc1)Cc1nc2ccccc2c(=O)[nH]1 , system: intestinal alkaline phosphatase [Mus musculus].
*A* 1.14

*Q* Given CCOC(=O)/C(C#N)=C\c1ccco1 , report its activation factor on intestinal alkaline phosphatase [Mus musculus].
*A* 1.12

*Q* Give activation factor only, for CN(CC(=O)NC(c1ccccc1)c1ccccc1)Cc1nc2ccccc2c(=O)[nH]1 , using intestinal alkaline phosphatase [Mus musculus] data.
*A* 2.71

*Q* Look up and report activation factor, with intestinal alkaline phosphatase [Mus musculus] as system, for CCSc1nnc(NC(=O)CCNS(=O)(=O)c2cc(Br)cnc2N)s1
*A* 0.825

*Q* State recorded activation factor with intestinal alkaline phosphatase [Mus musculus], entry CCN(CC(=O)Nc1ccc2c(c1)OCO2)Cc1nc2ccccc2c(=O)[nH]1 , no comment.
*A* 1.23

*Q* Report activation factor on intestinal alkaline phosphatase [Mus musculus] for this entry: C#CCOCCOCCOCCNc1nc(N2CCN(C(=O)CCCCCCCCCCNC(=O)[C@H](CCCCN)n3cc(C)nn3)CC2)nc(N2CCN(C(=O)CCCCCCCCCCNC(=O)[C@@H]([C@H](C)CC)n3cc(CCCCCN)nn3)CC2)n1
*A* 3.63

*Q* State activation factor (intestinal alkaline phosphatase [Mus musculus]) of O=C(CN(Cc1ccccc1F)C(=O)Cn1nnc(-c2cccs2)n1)NC1CCCCC1 .
*A* 1.22

*Q* Lab note: intestinal alkaline phosphatase [Mus musculus] assay, enter activation factor for O=S1(=O)CC(O)C(Nc2ccccc2)C1 (centres undefined) here
*A* 0.942

*Q* State activation factor (intestinal alkaline phosphatase [Mus musculus]) of C#CCOCCOCCOCCNc1nc(N2CCN(C(=O)CCCCCCCCCCNC(=O)[C@H]([C@@H](C)CC)n3cc(CCCCN=C(N)N)nn3)CC2)nc(N2CCN(C(=O)CCCCCCCCCCNC(=O)[C@H](CCCCN)n3cc(C)nn3)CC2)n1 .
*A* 8.54

====

Test system: intestinal alkaline phosphatase [Mus musculus]
Method Notes: mouse intestinal phosphatase enzyme activation – biochemical, luminescence, single concentration, confirmation (AID 434970)
Condition Notes: purified mouse IAP, CDP-Star luminescence, 30 min, at 10 µM; measured here: IAP activation factor, stronger effect = higher value
Screen size: about 11,000 compounds; about 310 (2.8%) were called active. For the sample, actives were picked, then their nearest neighbours and some compounds at random.
Record 1 whenever activation factor is at 1 or higher; record -1 when lower.

Check out these entries, answers already filled in.
COCC(C)NCc1cccc(OC)c1OC (stereo not given) : 1
Cc1ccc(-c2cc(-c3ccccc3)c3c(N)c(S(C)(=O)=O)sc3n2)cc1 : -1
COC(=O)C1=NN(c2ccccc2)C2(S1)SC(C(C)=O)=C(C)N2c1ccccc1 (stereo not given) : -1
CNC[C@H]1Oc2ccc(NC(=O)Nc3ccc(OC)cc3)cc2C(=O)N([C@@H](C)CO)C[C@H]1C : 1

Proceed to the following item.
*Q* Reported activation factor at or above 1? CC1CCN(C(=O)c2ccc(NC(=O)C3CCCO3)cc2)CC1 (stereo not given)
*A* 1
